meta.source: patent US20130131321A1

tested on: host cell proteins (HCP); test: Microtiter plate chromatography of resins, host cell proteins (bound); type: binding, CHO; details: host cell proteins
The label depends only on HCP Bound (%): fulfilled if it is at least 40%, not fulfilled if it is smaller.

Q: Hello, I need to know if COc1ccc(NC(=O)c2nc3ccccc3[nH]2)cc1C(=O)NCCCN [Ligand L47] has measured HCP Bound (%) not below 40%. Thanks!
Result: not fulfilled

Q: Decide: HCP Bound (%) of COc1ccc(NC(=O)c2cc(-c3cc(C)sc3C)n(C)n2)cc1C(=O)NCCCN [Ligand L3] >= 40%?
Result: fulfilled

Q: Could you tell me if the measured HCP Bound (%) of Cc1ccc(C(=O)NCCCN)cc1NC(=O)c1cc(-c2cccs2)n(C)n1 [Ligand L10] reaches 40% or more?
Result: fulfilled

Q: Confirm if HCP Bound (%) reported for the molecule COc1ccc(NC(=O)c2cncc(C3CC3)c2)cc1C(=O)NCCCN [Ligand L23] is 40% or above.
Result: not fulfilled

----------
Provide the recorded Bevacizumab IgG Yield (%) for the entries that follow.
biological target: Bevacizumab (Homo sapiens, UniProt P01857); construct: fused on or other part: humanised anti-VEGF-A VH domain N-terminal of the gamma-1 constant region (engineered, no UniProt entry); assay: Microtiter plate chromatography of resins, Bevacizumab whole IgG (bound, yield, selectivity); assay type: binding, humanized; settings: mass of whole IgG Bevacizumab eluted / mass injected
A complete answer gives the number and then names the unit.

Q: Can you look up the measured Bevacizumab IgG Yield (%) of COc1ccc(NC(=O)c2nnc3ccccn23)cc1C(=O)NCCCN for me?
Result: 90%

Q: Quick check: Bevacizumab IgG Yield (%) of Cc1ccc(C(=O)NCCCN)cc1NC(=O)c1cc(-c2cccs2)n(C)n1 ?
Result: 91%

Q: What does the data say about its Bevacizumab IgG Yield (%)? Entry: COc1ccc(NC(=O)c2cc(-c3cc(C)sc3C)n(C)n2)cc1C(=O)NCCCN
Result: 89%

Q: Entry COc1ccc(NC(=O)c2nnc(-c3ccco3)o2)cc1C(=O)NCCCN has what Bevacizumab IgG Yield (%)?
Result: 90%
